# credit: PubChem BioAssay (NCI)

- assay-protocol: NCI Yeast Anticancer Drug Screen. Data for the mec2-1 strain (AID 157)
- experimental-conditions: S. cerevisiae mec2-1 strain, at 50.0 µM, stronger effect = higher value
About 79,000 compounds went through this panel and 15% of them were active in at least one assay; those are over-represented in the sample as a whole.
Consider the following molecules; for each one, report its growth inhibition.
Write it as a number; the unit % goes unstated.

Q: Given the molecule NC(C(=O)O)C1=CCCCCC1 (stereo not drawn) , write its reported growth inhibition.
Ans: 13.8

Q: Given the molecule "O=C(O)/C=C\c1cc2ccccc2c2ccccc12" , write its reported growth inhibition.
Ans: 98.8

Q: Given the molecule "O=NNc1ccc2cc3ccc(NN=O)cc3nc2c1" , write its reported growth inhibition.
Ans: -11.1

Q: Given the molecule "CC(CO)(CO)Cc1ccccc1" , write its reported growth inhibition.
Ans: 97.9

Q: Given the molecule C=C1CCC[C@@H]2[C@@](C)(CC3=CC(=O)C=CC3=O)C(C)CC[C@]12C (stereo partly drawn) , write its reported growth inhibition.
Ans: 88.7

Q: Given the molecule "CC(=O)Nc1cccc(C(=O)O)c1" , write its reported growth inhibition.
Ans: 0

Q: Given the molecule CC(O)(CO)CC(C)(O)CO (stereo not drawn) , write its reported growth inhibition.
Ans: -7.2

Q: Given the molecule "Cc1c(Cl)c(S(N)(=O)=O)cc2c1NC=NS2(=O)=O" , write its reported growth inhibition.
Ans: -22.8

Q: Given the molecule "N#CSC#CCCC#CSC#N" , write its reported growth inhibition.
Ans: 93.9

Q: Given the molecule CC(=O)Nc1nc(Cl)c2ncn(C3CC(OC(=O)c4ccc(C)cc4)C(COC(=O)c4ccc(C)cc4)O3)c2n1 (stereo not drawn) , write its reported growth inhibition.
Ans: 27.4

Q: Given the molecule "O=C(Cc1nc2ccc(Cl)cc2nc1CC(=O)c1ccccc1)c1ccccc1" , write its reported growth inhibition.
Ans: 85.5

Q: Given the molecule "O=C(Nc1ccc(C2=NCCN2)cc1)c1cc(C(=O)Nc2ccc(C3=NCCN3)cc2)cc(C(=O)Nc2ccc(C3=NCCN3)cc2)c1" , write its reported growth inhibition.
Ans: 99

Q: Given the molecule "CC(C)(C)OC(=O)c1ccc(NCC2=C(Br)C(=O)C=CC2=O)cc1" , write its reported growth inhibition.
Ans: 94

Q: Given the molecule "C[N+](C)(C)CC(=O)N/N=C/c1oc(-c2c(O)ccc3ccccc23)c(-c2c(O)ccc3ccccc23)c1[N+](=O)[O-]" , write its reported growth inhibition.
Ans: 90.6

Q: Given the molecule "COc1ccc(CN2CCCN(Cc3ccc(OC)cc3)C2Cc2cc(Cl)ccc2OC)cc1" , write its reported growth inhibition.
Ans: 48.8

Q: Given the molecule "CCCCCCCCCCCCNC(=O)c1cc[n+](Cc2ccc(Cl)c(Cl)c2)cc1" , write its reported growth inhibition.
Ans: 99.2

Q: Given the molecule "Cc1cccc(N=Nc2ccc(O)cc2)c1" , write its reported growth inhibition.
Ans: 99.5

Q: Given the molecule "FC(F)(F)c1nc(Cl)nc2nc[nH]c12" , write its reported growth inhibition.
Ans: 6.1

====

- assay-protocol: NCI Yeast Anticancer Drug Screen. Data for the cln2 rad14 strain (AID 165);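 note: 0% = growth equal to vehicle treated cultures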
- experimental-conditions: S. cerevisiae cln2 rad14 strain, at 50.0 µM (retest, dose inferred, filed as 5.0)
The panel holds about 79,000 compounds, 15% with a hit somewhere; the sample as a whole holds those more often. The source made the active and inactive calls. Cut-off read from the data, not from the text of the source: active = growth inhibition above about 70%; inactive = the rest.
In this exercise, the only acceptable responses are TRUE for active, FALSE for inactive

Q: Dear colleague, could you share the recorded outcome for "NC(=S)Nc1ccccc1O" when you have a moment?
Ans: FALSE

Q: Dear colleague, could you share the recorded outcome for CC(C)(C)c1ccc2c(c1)C(O)(c1ccccc1)C1OC1(C(C)(C)C)C2=O (centres undefined) when you have a moment?
Ans: TRUE

Q: Dear colleague, could you share the recorded outcome for "CC(C)(C)CC(C)(C)c1ccc(O)cc1O" when you have a moment?
Ans: TRUE

Q: Dear colleague, could you share the recorded outcome for CN(C)c1nc(Cl)nc2c1ncn2C1OCC(O)C(O)C1O (centres undefined) when you have a moment?
Ans: FALSE

Q: Dear colleague, could you share the recorded outcome for "COc1ccc(N(C)Sc2ccccc2)cc1" when you have a moment?
Ans: FALSE

Q: Dear colleague, could you share the recorded outcome for "CCCCCCOC(=O)CCC(=O)OCCCCCC" when you have a moment?
Ans: FALSE

Q: Dear colleague, could you share the recorded outcome for "COc1ccc(N=N/N=c2\sc3cc(Cl)ccc3n2C)cc1" when you have a moment?
Ans: FALSE

Q: Dear colleague, could you share the recorded outcome for "CCN(CC)c1cccc(OC(=O)Nc2cccc(C(F)(F)F)c2)c1" when you have a moment?
Ans: FALSE

Q: Dear colleague, could you share the recorded outcome for "O=C1c2ccccc2C(=O)c2c1cc(O)c(O)c2O" when you have a moment?
Ans: TRUE

Q: Dear colleague, could you share the recorded outcome for "O=C(O)/C(=C\c1cc(I)c(O)c(I)c1)c1ccc(I)cc1" when you have a moment?
Ans: TRUE

Q: Dear colleague, could you share the recorded outcome for "Cc1nc(N)sc1N=Nc1cc(Cl)c([N+](=O)[O-])cc1Cl" when you have a moment?
Ans: FALSE

Q: Dear colleague, could you share the recorded outcome for CC1CC(N)=NC1C(=O)NCCC#N (centres undefined) when you have a moment?
Ans: FALSE

Q: Dear colleague, could you share the recorded outcome for "Clc1ccc2nc3c(c(N4CCCCC4)c2c1)CCCC3" when you have a moment?
Ans: TRUE

Q: Dear colleague, could you share the recorded outcome for "Cc1cc(O)c(/C=N/C(=S)Nc2ccc(S(N)(=O)=O)cc2)c(=O)o1" when you have a moment?
Ans: FALSE

Q: Dear colleague, could you share the recorded outcome for "CCCCCc1[nH]nc(C(=O)OC)c1N=NN1CCOCC1" when you have a moment?
Ans: TRUE

Q: Dear colleague, could you share the recorded outcome for "CCCCCCCC[N+](C)(C)Cc1ccc(C[N+](C)(C)CCCCCCCC)cc1" when you have a moment?
Ans: FALSE

Q: Dear colleague, could you share the recorded outcome for COc1ccccc1C(c1cc2c(cc1O)OCO2)N1CCOCC1 (centres undefined) when you have a moment?
Ans: FALSE

Q: Dear colleague, could you share the recorded outcome for "CN(C)C(=O)/C=C/c1c[nH]c(=O)[nH]c1=O" when you have a moment?
Ans: FALSE

Q: Dear colleague, could you share the recorded outcome for "COc1ccc(C(=O)Cc2ccc(Cl)cc2)cc1OC" when you have a moment?
Ans: FALSE

Q: Dear colleague, could you share the recorded outcome for "COC(=O)c1ccc(NN)cc1" when you have a moment?
Ans: FALSE

Q: Dear colleague, could you share the recorded outcome for "CCCCCCCCCCCCCCNCC(OCC)OCC" when you have a moment?
Ans: TRUE

Q: Dear colleague, could you share the recorded outcome for "O=c1ccc2c(COc3ccc(Cl)cc3Cl)c3ccc(O)cc3oc-2c1" when you have a moment?
Ans: FALSE

Q: Dear colleague, could you share the recorded outcome for CC(C)(Br)C(Br)C(=O)C(Br)C(C)(C)Br (centres undefined) when you have a moment?
Ans: FALSE

Q: Dear colleague, could you share the recorded outcome for "CC1CCN(CC(=O)N2c3ccccc3Sc3cc4ccccc4cc32)CC1" when you have a moment?
Ans: FALSE

Q: Dear colleague, could you share the recorded outcome for "Cc1ccc(S)c(S)c1" when you have a moment?
Ans: TRUE

Q: Dear colleague, could you share the recorded outcome for COc1ccc2ccc3c(c2c1)CCC(C(=O)O)C3CC(=O)O (centres undefined) when you have a moment?
Ans: FALSE

Q: Dear colleague, could you share the recorded outcome for "Cc1ccc(S(=O)(=O)N/N=C/c2oc(-c3cccc([N+](=O)[O-])c3)c(-c3cccc([N+](=O)[O-])c3)c2[N+](=O)[O-])cc1" when you have a moment?
Ans: FALSE

Q: Dear colleague, could you share the recorded outcome for CC1C[C@]2(C)C(=S)Nc3ccccc3[C@@H]2Nc2ccccc21 (some centres undefined) when you have a moment?
Ans: FALSE

Q: Dear colleague, could you share the recorded outcome for CS(=O)(=O)OC1C(O)C(n2cnc3c(N)ncnc32)C(O)C(OS(C)(=O)=O)C1OS(C)(=O)=O (centres undefined) when you have a moment?
Ans: FALSE

Q: Dear colleague, could you share the recorded outcome for "O=C(CNC(=O)OCc1ccccc1)NNc1ccccc1Cl" when you have a moment?
Ans: TRUE

Q: Dear colleague, could you share the recorded outcome for "C/C(=N/NC(N)=O)c1ccc(Cl)s1" when you have a moment?
Ans: FALSE

Q: Dear colleague, could you share the recorded outcome for C[C@]12CC[C@H](O)CC1=CC[C@@H]1C2CC[C@]2(C)NC(=O)CCC12 (some centres undefined) when you have a moment?
Ans: FALSE

Q: Dear colleague, could you share the recorded outcome for "C#Cc1cccc(N2C(=O)CCC2=O)c1" when you have a moment?
Ans: TRUE

Q: Dear colleague, could you share the recorded outcome for "Oc1cccc2c(Br)ccnc12" when you have a moment?
Ans: TRUE
